Numbers sourced from patent US20170088602A1.

# TARGET SYSTEM: T1, human BMP-11 (GDF-11; R&D Systems) (human, UniProt O95390 299-407)
# T1 sequence (looked up): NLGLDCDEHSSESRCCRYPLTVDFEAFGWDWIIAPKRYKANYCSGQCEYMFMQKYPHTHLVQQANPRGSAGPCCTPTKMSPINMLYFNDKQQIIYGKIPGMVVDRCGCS
# METHOD: cell-based or functional assay
MEASURED PARAMETER: ARE-luciferase IC50 (nM)

A: 3116_A07 (designed binder) MGVSDVPRDLEVVAATPTSLLISWDAPKGLARYYRITYGETGGNSPVQEFTVVGRGNTATISGLKPGVDYTITVYAVTIFRDGPVTWDPISINYRTEIDKPSQHHHHHH
B: 3116_A06 (designed binder, also called WT parent) MGVSDVPRDLEVVAATPTSLLISWSLPHQGKANYYRITYGETGGNSPVQEFTVPGRGVTATISGLKPGVDYTITVYAVTVTDTGYLKYKPISINYRTEIDKPSQHHHHHH
Could you please tell me which of these two has the higher ARE-luciferase IC50: A or B ? Answer with the label corresponding to your selection.
B
